Data provenance: the supplement of paper PMC6555819

System: PPARg DBDmut:RXRa IVT, anti-PPARg (DBD mutation: PPARg1 K132A/R137A, NR concentration 270 nM, RXRa partner concentration 90 nM)
experimental.details: PBM binding z-score (relative to random genomic background probes); higher = stronger binding; sequences stand for … in GC…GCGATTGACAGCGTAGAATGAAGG
property: PBM binding z-score
Answer with the value's number alone.

Task: Reported PBM binding z-score, sequence CGTCCAACGTCATAGGAGGTCAGTGAAGACAGAT : ____
Result: 0.0644

Task: Reported PBM binding z-score, sequence GGAACGAGGGCAAATTTGATAGCATCTGTCGACG : ____
Result: 0.00863

Task: Reported PBM binding z-score, sequence TCTAGTTGGTCAAACGTCACACACTCGAAATGCG : ____
Result: 0.65

Task: Reported PBM binding z-score, sequence CGAACGCGGGCATGAGTTGATAGCAAATGCCGAT : ____
Result: -0.145

Task: Reported PBM binding z-score, sequence CCAGACAGGTGAGAAGGTAACTAAGCCTCGATTA : ____
Result: -0.627

Task: Reported PBM binding z-score, sequence TCGAGTAGGTTGCCAATGGGGCATTCAGCTTTCT : ____
Result: -0.582
